Each recorded value in this set is attributed to paper PMC8151276.

- TARGET OR TEST SYSTEM: CCR2 (Homo sapiens, UniProt P41597)
- Construct: purchased Promega (in-house HiBiT-GPCR construct library, NanoBRET)
- Sequence (P41597 whole entry): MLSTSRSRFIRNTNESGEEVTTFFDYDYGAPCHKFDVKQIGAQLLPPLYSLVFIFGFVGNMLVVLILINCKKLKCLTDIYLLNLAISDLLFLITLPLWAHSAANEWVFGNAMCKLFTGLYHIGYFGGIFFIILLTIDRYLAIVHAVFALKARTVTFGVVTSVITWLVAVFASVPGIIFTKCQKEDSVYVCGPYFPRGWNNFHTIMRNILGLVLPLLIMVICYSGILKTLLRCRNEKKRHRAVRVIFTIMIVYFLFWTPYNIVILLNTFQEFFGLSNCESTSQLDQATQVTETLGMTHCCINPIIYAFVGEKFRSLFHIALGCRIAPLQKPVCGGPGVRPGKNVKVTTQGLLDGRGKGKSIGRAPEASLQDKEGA
- EXPERIMENTAL DETAILS: NanoBRET screen HiBiT-CCR2 in HEK293
- Format: binding
- TEST PARAMETERS: CCR2; tracer 0.1μM
PARAMETER: NanoBRET Fold Response

MOLECULE	READING
O=C(CCOCCOCCOCCOCCNC(=O)CCc1ccc2n1[B-](F)(F)[N+]1=C(c3ccc[nH]3)C=CC1=C2)NCCCN1CCN(C2=Nc3ccccc3Oc3ccc(Cl)cc32)CC1 [Loxapine-a-2-NB590]	0.97
O=C(CCc1ccc2n1[B-](F)(F)[N+]1=C(c3ccc[nH]3)C=CC1=C2)NCCOCCOCCNC(=O)OCCOCCN1CCN(C2=Nc3ccccc3Sc3ccccc32)CC1 [Quetiapine-a-2-NB590]	1.00
CC(C)N(CC[C@H](c1ccccc1)c1cc(CCNC(=O)CCOCCOCCOCCOCCNC(=O)CCc2ccc3n2[B-](F)(F)[N+]2=C(c4ccc[nH]4)C=CC2=C3)ccc1O)C(C)C [Tolterodine-2-NB590]	1.20

====

Below, each entry is listed alongside its reported NanoBRET Fold Response.
- TARGET OR TEST SYSTEM: GCGR (Homo sapiens)
- Construct: purchased Promega (in-house HiBiT-GPCR construct library, NanoBRET)
- Sequence (P47871 26-477): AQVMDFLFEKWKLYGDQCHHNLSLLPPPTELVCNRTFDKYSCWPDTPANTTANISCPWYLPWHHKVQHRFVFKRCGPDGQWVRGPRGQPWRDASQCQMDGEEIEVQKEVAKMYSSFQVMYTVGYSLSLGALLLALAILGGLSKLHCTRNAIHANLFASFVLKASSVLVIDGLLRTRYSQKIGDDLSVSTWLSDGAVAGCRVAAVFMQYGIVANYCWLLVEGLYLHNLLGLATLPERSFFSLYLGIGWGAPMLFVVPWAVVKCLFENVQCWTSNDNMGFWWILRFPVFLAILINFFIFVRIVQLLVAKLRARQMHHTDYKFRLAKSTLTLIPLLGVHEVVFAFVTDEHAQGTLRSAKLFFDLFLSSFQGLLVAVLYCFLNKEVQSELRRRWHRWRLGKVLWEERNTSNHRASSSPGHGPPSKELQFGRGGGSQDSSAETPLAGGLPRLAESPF
- EXPERIMENTAL DETAILS: NanoBRET screen HiBiT-GCGR in HEK293
- Assay type: binding
- TEST PARAMETERS: GCGR; tracer 1μM

COMPOUND	TARGET OR TEST SYSTEM	NanoBRET Fold Response
COc1ccccc1N1CCN(CCCCN2C(=O)c3ccc(CNC(=O)CCOCCOCCOCCOCCNC(=O)CCc4ccc5n4[B-](F)(F)[N+]4=C(c6ccc[nH]6)C=CC4=C5)cc3C2=O)CC1	GCGR (Homo sapiens)	1.06
O=C(CCc1ccc2n1[B-](F)(F)[N+]1=C(c3ccc[nH]3)C=CC1=C2)NCCOCCOCCNC(=O)OCCOCCN1CCN(C2=Nc3ccccc3Sc3ccccc32)CC1	GCGR (Homo sapiens)	0.73
CN(C)CCC=C1c2ccccc2CCc2ccc(C(=O)NCCNC(=O)CCOCCOCCOCCOCCNC(=O)CCc3ccc4n3[B-](F)(F)[N+]3=C(c5ccc[nH]5)C=CC3=C4)cc21	GCGR (Homo sapiens)	1.03
Cc1nc2n(c(=O)c1CCN1CCC(c3noc4cc(F)ccc34)CC1)CCCC2OC(=O)NCCOCCOCCOCCOCCNC(=O)CCc1ccc2n1[B-](F)(F)[N+]1=C(c3ccc[nH]3)C=CC1=C2 (centres unmarked)	GCGR (Homo sapiens)	0.93
CCCn1c(=O)c2[nH]c(-c3ccc(OCC(=O)NCCNC(=O)CCOCCNC(=O)c4ccc(CNC(=O)CCc5ccc6n5[B-](F)(F)[N+]5=C(c7ccc[nH]7)C=CC5=C6)cc4)cc3)nc2n(CCC)c1=O	GCGR (Homo sapiens)	0.96

====

- TARGET OR TEST SYSTEM: CHRM1 (Homo sapiens, UniProt P11229)
- Construct: purchased Promega (in-house HiBiT-GPCR construct library, NanoBRET)
- Sequence (P11229 whole entry): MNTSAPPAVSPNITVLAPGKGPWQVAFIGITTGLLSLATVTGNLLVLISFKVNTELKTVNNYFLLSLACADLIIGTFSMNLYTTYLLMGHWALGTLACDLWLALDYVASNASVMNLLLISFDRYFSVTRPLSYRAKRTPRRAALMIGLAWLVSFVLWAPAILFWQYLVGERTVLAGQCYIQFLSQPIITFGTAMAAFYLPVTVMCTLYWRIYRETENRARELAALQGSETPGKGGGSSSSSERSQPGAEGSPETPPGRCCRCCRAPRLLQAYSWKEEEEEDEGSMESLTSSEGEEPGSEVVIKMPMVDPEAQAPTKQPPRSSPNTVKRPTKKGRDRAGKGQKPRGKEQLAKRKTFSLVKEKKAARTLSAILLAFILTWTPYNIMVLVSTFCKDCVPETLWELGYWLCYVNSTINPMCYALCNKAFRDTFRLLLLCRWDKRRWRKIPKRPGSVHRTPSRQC
- EXPERIMENTAL DETAILS: NanoBRET screen HiBiT-CHRM1 in HEK293
- Format: binding
- TEST PARAMETERS: CHRM1; tracer 1μM

MOLECULE	NanoBRET Fold Response
N#CN=C(NCCCOc1cccc(CN2CCCCC2)c1)NCCNC(=O)CCOCCOCCOCCOCCNC(=O)CCc1ccc2n1[B-](F)(F)[N+]1=C(c3ccc[nH]3)C=CC1=C2 [Aminopotentidine-2-NB590]	1.35
COc1ccccc1N1CCN(CCCCN2C(=O)c3ccc(CNC(=O)CCOCCNC(=O)c4ccc(CNC(=O)CCc5ccc6n5[B-](F)(F)[N+]5=C(c7ccc[nH]7)C=CC5=C6)cc4)cc3C2=O)CC1 [NAN-190-3-NB590]	0.92
COc1ccccc1N1CCN(CCCCN2C(=O)c3ccc(CNC(=O)CCOCCOCCOCCOCCNC(=O)CCc4ccc5n4[B-](F)(F)[N+]4=C(c6ccc[nH]6)C=CC4=C5)cc3C2=O)CC1 [NAN-190-2-NB590]	1.16
CCCn1c(=O)c2[nH]c(-c3ccc(OCC(=O)NCCNC(=O)CCOCCNC(=O)c4ccc(CNC(=O)CCc5ccc6n5[B-](F)(F)[N+]5=C(c7ccc[nH]7)C=CC5=C6)cc4)cc3)nc2n(CCC)c1=O [XAC-3-NB590]	0.99

====

// NanoBRET Fold Response lookup, one value per entry
- TARGET OR TEST SYSTEM: F2RL3 (Homo sapiens, UniProt Q96RI0)
- Construct: purchased Promega (in-house HiBiT-GPCR construct library, NanoBRET)
- Sequence (Q96RI0 18-385): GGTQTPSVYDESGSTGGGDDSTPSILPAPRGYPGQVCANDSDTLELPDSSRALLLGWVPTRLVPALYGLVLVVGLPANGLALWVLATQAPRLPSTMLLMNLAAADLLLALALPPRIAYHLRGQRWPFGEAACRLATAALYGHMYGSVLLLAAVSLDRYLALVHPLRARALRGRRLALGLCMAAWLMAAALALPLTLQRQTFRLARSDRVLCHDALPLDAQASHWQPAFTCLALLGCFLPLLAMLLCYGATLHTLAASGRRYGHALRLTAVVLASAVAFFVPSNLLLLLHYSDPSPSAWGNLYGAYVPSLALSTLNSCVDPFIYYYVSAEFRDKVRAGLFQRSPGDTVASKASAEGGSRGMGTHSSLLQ
- EXPERIMENTAL DETAILS: NanoBRET screen HiBiT-F2RL3 in HEK293
- Assay type: binding
- TEST PARAMETERS: F2RL3; tracer 0.1μM
PARAMETER: NanoBRET Fold Response

COMPOUND	TARGET OR TEST SYSTEM	READING
COc1ccccc1N1CCN(CCCCN2C(=O)c3ccc(CNC(=O)CCOCCOCCOCCOCCNC(=O)CCc4ccc5n4[B-](F)(F)[N+]4=C(c6ccc[nH]6)C=CC4=C5)cc3C2=O)CC1	F2RL3 (Homo sapiens, UniProt Q96RI0)	0.99
O=C(CCOCCOCCOCCOCCNC(=O)CCc1ccc2n1[B-](F)(F)[N+]1=C(c3ccc[nH]3)C=CC1=C2)NCCCN1CCN(C2=Nc3ccccc3Oc3ccc(Cl)cc32)CC1	F2RL3 (Homo sapiens, UniProt Q96RI0)	1.00
N#CN=C(NCCCOc1cccc(CN2CCCCC2)c1)NCCNC(=O)CCOCCOCCOCCOCCNC(=O)CCc1ccc2n1[B-](F)(F)[N+]1=C(c3ccc[nH]3)C=CC1=C2	F2RL3 (Homo sapiens, UniProt Q96RI0)	0.99
O=C(CCc1ccc2n1[B-](F)(F)[N+]1=C(c3ccc[nH]3)C=CC1=C2)NCCOCCOCCNC(=O)OCCOCCN1CCN(C2=Nc3ccccc3Sc3ccccc32)CC1	F2RL3 (Homo sapiens, UniProt Q96RI0)	1.09
CC(C)N(CC[C@H](c1ccccc1)c1cc(CCNC(=O)c2ccc(CNC(=O)CCc3ccc4n3[B-](F)(F)[N+]3=C(c5ccc[nH]5)C=CC3=C4)cc2)ccc1O)C(C)C	F2RL3 (Homo sapiens, UniProt Q96RI0)	1.03
COc1ccccc1N1CCN(CCCCN2C(=O)c3ccc(CNC(=O)CCOCCNC(=O)c4ccc(CNC(=O)CCc5ccc6n5[B-](F)(F)[N+]5=C(c7ccc[nH]7)C=CC5=C6)cc4)cc3C2=O)CC1	F2RL3 (Homo sapiens, UniProt Q96RI0)	1.15
Cc1cc2c(s1)Nc1ccccc1N=C2N1CCN(CCCNC(=O)CCOCCOCCOCCOCCNC(=O)CCc2ccc3n2[B-](F)(F)[N+]2=C(c4ccc[nH]4)C=CC2=C3)CC1	F2RL3 (Homo sapiens, UniProt Q96RI0)	1.04
O=C(CCc1ccc2n1[B-](F)(F)[N+]1=C(c3ccc[nH]3)C=CC1=C2)NCc1ccc(C(=O)NCCOCCC(=O)N[C@@H]2CC[C@@]3(O)[C@H]4Cc5ccc(O)c6c5[C@@]3(CCN4CC3CC3)[C@H]2O6)cc1 [Naltrexone-3-NB590]	F2RL3 (Homo sapiens, UniProt Q96RI0)	0.92

====

- TARGET OR TEST SYSTEM: DRD1 (Homo sapiens)
- Construct: purchased Promega (in-house HiBiT-GPCR construct library, NanoBRET)
- Sequence (P21728 whole entry): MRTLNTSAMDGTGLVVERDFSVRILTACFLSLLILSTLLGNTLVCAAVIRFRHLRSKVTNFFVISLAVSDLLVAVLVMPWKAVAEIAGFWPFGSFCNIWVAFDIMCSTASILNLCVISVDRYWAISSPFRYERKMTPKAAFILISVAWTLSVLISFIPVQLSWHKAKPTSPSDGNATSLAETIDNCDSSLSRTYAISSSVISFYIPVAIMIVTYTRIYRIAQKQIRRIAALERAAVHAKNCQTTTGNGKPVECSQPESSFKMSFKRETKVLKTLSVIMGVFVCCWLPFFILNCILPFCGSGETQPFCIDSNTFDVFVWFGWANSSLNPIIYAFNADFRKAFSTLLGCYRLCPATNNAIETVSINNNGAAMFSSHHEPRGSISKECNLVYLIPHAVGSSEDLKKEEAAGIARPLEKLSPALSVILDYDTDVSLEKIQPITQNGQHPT
- EXPERIMENTAL DETAILS: NanoBRET screen HiBiT-DRD1 in HEK293
- Assay type: binding
- TEST PARAMETERS: DRD1; tracer 0.1μM
PARAMETER: NanoBRET Fold Response

COMPOUND	TARGET OR TEST SYSTEM	PARAMETER	READING
N#CN=C(NCCCOc1cccc(CN2CCCCC2)c1)NCCNC(=O)CCOCCOCCOCCOCCNC(=O)CCc1ccc2n1[B-](F)(F)[N+]1=C(c3ccc[nH]3)C=CC1=C2	DRD1 (Homo sapiens)	NanoBRET Fold Response	1.04
Cc1nc2n(c(=O)c1CCN1CCC(c3noc4cc(F)ccc34)CC1)CCCC2OC(=O)NCCOCCOCCOCCOCCNC(=O)CCc1ccc2n1[B-](F)(F)[N+]1=C(c3ccc[nH]3)C=CC1=C2 (centres unmarked)	DRD1 (Homo sapiens)	NanoBRET Fold Response	2.20
COc1ccccc1N1CCN(CCCCN2C(=O)c3ccc(CNC(=O)CCOCCOCCOCCOCCNC(=O)CCc4ccc5n4[B-](F)(F)[N+]4=C(c6ccc[nH]6)C=CC4=C5)cc3C2=O)CC1	DRD1 (Homo sapiens)	NanoBRET Fold Response	1.23
COc1ccccc1N1CCN(CCCCN2C(=O)c3ccc(CNC(=O)CCOCCNC(=O)c4ccc(CNC(=O)CCc5ccc6n5[B-](F)(F)[N+]5=C(c7ccc[nH]7)C=CC5=C6)cc4)cc3C2=O)CC1	DRD1 (Homo sapiens)	NanoBRET Fold Response	1.75
O=C(CCc1ccc2n1[B-](F)(F)[N+]1=C(c3ccc[nH]3)C=CC1=C2)NCCOCCOCCNC(=O)OCCOCCN1CCN(C2=Nc3ccccc3Sc3ccccc32)CC1	DRD1 (Homo sapiens)	NanoBRET Fold Response	1.65
CC(C)N(CC[C@H](c1ccccc1)c1cc(CCNC(=O)c2ccc(CNC(=O)CCc3ccc4n3[B-](F)(F)[N+]3=C(c5ccc[nH]5)C=CC3=C4)cc2)ccc1O)C(C)C	DRD1 (Homo sapiens)	NanoBRET Fold Response	1.28
O=C(CCc1ccc2n1[B-](F)(F)[N+]1=C(c3ccc[nH]3)C=CC1=C2)NCc1ccc(C(=O)NCCOCCC(=O)N[C@@H]2CC[C@@]3(O)[C@H]4Cc5ccc(O)c6c5[C@@]3(CCN4CC3CC3)[C@H]2O6)cc1 [Naltrexone-3-NB590]	DRD1 (Homo sapiens)	NanoBRET Fold Response	0.98
O=C(CCOCCOCCOCCOCCNC(=O)CCc1ccc2n1[B-](F)(F)[N+]1=C(c3ccc[nH]3)C=CC1=C2)NCCCN1CCN(C2=Nc3ccccc3Oc3ccc(Cl)cc32)CC1	DRD1 (Homo sapiens)	NanoBRET Fold Response	1.65
CCCn1c(=O)c2[nH]c(-c3ccc(OCC(=O)NCCNC(=O)CCOCCNC(=O)c4ccc(CNC(=O)CCc5ccc6n5[B-](F)(F)[N+]5=C(c7ccc[nH]7)C=CC5=C6)cc4)cc3)nc2n(CCC)c1=O	DRD1 (Homo sapiens)	NanoBRET Fold Response	0.90
Cc1cc2c(s1)Nc1ccccc1N=C2N1CCN(CCCNC(=O)CCOCCOCCOCCOCCNC(=O)CCc2ccc3n2[B-](F)(F)[N+]2=C(c4ccc[nH]4)C=CC2=C3)CC1	DRD1 (Homo sapiens)	NanoBRET Fold Response	2.04
CC(C)N(CC[C@H](c1ccccc1)c1cc(CCNC(=O)CCOCCOCCOCCOCCNC(=O)CCc2ccc3n2[B-](F)(F)[N+]2=C(c4ccc[nH]4)C=CC2=C3)ccc1O)C(C)C	DRD1 (Homo sapiens)	NanoBRET Fold Response	0.94
